- assayed-target: Growth factor receptor-bound protein 2 (Homo sapiens) (UniProt P62993)
- Sequence (P62993 whole entry, looked up, the tested form may be a part): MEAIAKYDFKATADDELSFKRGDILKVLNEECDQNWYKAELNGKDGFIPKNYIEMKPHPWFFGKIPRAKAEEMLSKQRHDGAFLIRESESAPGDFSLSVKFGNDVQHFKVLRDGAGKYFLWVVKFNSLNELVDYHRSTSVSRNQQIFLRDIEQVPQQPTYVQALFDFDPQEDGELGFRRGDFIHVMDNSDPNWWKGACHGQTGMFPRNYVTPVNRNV
- assay: Binding affinity to Grb2-SH2 domain (53 to 163 residues) (unknown origin) expressed in Escherichia coli assessed as change in enthalpy by ITC analysis
Square brackets hold non-standard residues; d marks the D form. Peptide text beside a SMILES is read from it. * marks the point of attachment. pY = N[C@@H](Cc1ccc(OP(=O)(O)O)cc1)C(=O)O; Ac6c = NC1(C(=O)O)CCCCC1; NHBn = c1ccc(CN*)cc1
measured-property: deltaH (kcal/mol)

                                   compound  measured_property  value_reported
0  CC(=O)N[C@@H](Cc1ccc(OP(=O)(O)O)cc1)C(=O)NC1(C(=O)N[C@@H](CC(N)=O)C(=O)NCCc2cn(C)c3ccccc23)CCCCC1             deltaH            -8.1
1  CC(=O)N[C@@H](Cc1ccc(OP(=O)(O)O)cc1)C(=O)NC1(C(=O)N[C@@H](CC(N)=O)C(=O)NCCCC2CCCCC2)CCCCC1             deltaH              -8
2  CC(=O)N[C@@H](Cc1ccc(OP(=O)(O)O)cc1)C(=O)NC1(C(=O)N[C@@H](CC(N)=O)C(=O)NCCCc2c[nH]c3ccccc23)CCCCC1             deltaH            -9.1
3  CC(=O)N[C@@H](Cc1ccc(OP(=O)(O)O)cc1)C(=O)NC1(C(=O)N[C@@H](CC(N)=O)C(=O)NCc2ccccc2)CCCCC1 (Ac-[pY]-[Ac6c]-Asn-NHBn)             deltaH            -7.5
4  CC(=O)N[C@@H](Cc1ccc(OP(=O)(O)O)cc1)C(=O)NC1(C(=O)N[C@@H](CC(N)=O)C(=O)NCCCCCc2ccccc2)CCCCC1             deltaH            -7.9
5  CC(=O)N[C@@H](Cc1ccc(OP(=O)(O)O)cc1)C(=O)NC1(C(=O)N[C@@H](CC(N)=O)C(=O)NCCCC(C)C)CCCCC1             deltaH            -7.9
